target: Falcipain 2 (Plasmodium falciparum, UniProt Q9N6S8); assay: Inhibition of Plasmodium falciparum W2 recombinant falcipain-2 activity
Sequence (Q9N6S8 whole entry): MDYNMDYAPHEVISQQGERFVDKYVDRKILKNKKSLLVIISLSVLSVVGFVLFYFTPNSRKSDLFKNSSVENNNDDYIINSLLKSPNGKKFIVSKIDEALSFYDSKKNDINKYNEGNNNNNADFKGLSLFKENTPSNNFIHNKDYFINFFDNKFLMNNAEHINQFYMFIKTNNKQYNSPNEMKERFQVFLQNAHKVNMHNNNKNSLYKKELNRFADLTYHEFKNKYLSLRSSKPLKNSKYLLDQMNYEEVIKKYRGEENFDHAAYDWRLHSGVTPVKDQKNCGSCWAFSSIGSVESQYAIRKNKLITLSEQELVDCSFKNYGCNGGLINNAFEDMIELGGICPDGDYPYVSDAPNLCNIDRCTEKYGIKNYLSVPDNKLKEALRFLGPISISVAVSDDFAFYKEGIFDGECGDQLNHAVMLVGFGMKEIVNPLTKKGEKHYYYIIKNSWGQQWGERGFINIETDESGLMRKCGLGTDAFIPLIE
MEASUREMENT_LABEL: pIC50
Note on pIC50: it is the negative log10 of concentration, concentration in mol/L.

Can you share its pIC50? I mean this molecule: `C/C(=N\NC(=S)NCCNc1ccnc2cc(Cl)ccc12)c1ccc(Br)cc1` 4.89

Can you share its pIC50? I mean this molecule: `C/C(=N\NC(=S)NCCNc1ccnc2cc(Cl)ccc12)c1ccc(Cl)c(Cl)c1` 5.35
